Data origin, for the record: ChEMBL document CHEMBL2157901

Assay summary: Cytotoxicity against LPS-activated mouse RAW264.7 cells after 24 hrs by MTT method
Format: cell-based
Stated conditions: LPS-activated RAW264.7 cells
// reported CC50 at 24 h for each item listed
Please respond with the number in µM and leave the unit unwritten.

# count of solved cases: 2
{"Compound": "COc1ccc(C2CC(c3ccc(Cl)c(Cl)c3)=NN2C2=NC(=O)CS2)cc1 (stereo not given)", "Unit text": "µM", "CC50 at 24 h": 264}
{"Compound": "Cc1ccc(C2CC(c3ccc(Cl)c(Cl)c3)=NN2C2=NC(=O)CS2)cc1 (stereo not given)", "Unit text": "µM", "CC50 at 24 h": 279}

Request: Indicate its recorded CC50 at 24 h; the compound in question is O=C1CSC(N2N=C(c3ccc(Cl)c(Cl)c3)CC2c2ccc(Br)cc2)=N1 (stereo not given)
Response: 280

Request: Tell me its CC50 at 24 h given Cc1ccc(C2=NN(C3=NC(=O)CS3)C(c3cccc(Cl)c3)C2)cc1C (stereo not given) as the entry.
Response: 178

Request: Return CC50 at 24 h (reported value) for this compound: Cc1ccc(C2=NN(C3=NC(=O)CS3)C(c3ccccc3C)C2)cc1C (stereo not given)
Response: 317

Request: Please indicate CC50 at 24 h recorded for Cc1cccc(C2CC(c3ccc(Cl)c(Cl)c3)=NN2C2=NC(=O)CS2)c1 (stereo not given)
Response: 204

Request: Input O=C1CSC(N2N=C(c3ccc(Cl)c(Cl)c3)CC2c2ccc(Cl)cc2)=N1 (stereo not given) , output reported CC50 at 24 h.
Response: 187

Request: Give CC50 at 24 h for Cc1ccc(C2=NN(C3=NC(=O)CS3)C(c3ccccc3Cl)C2)cc1C (stereo not given)
Response: 227

Request: Please report the measured CC50 at 24 h for Cc1ccc(C2=NN(C3=NC(=O)CS3)C(c3ccc(F)cc3)C2)cc1C (stereo not given)
Response: 246

Request: Write down CC50 at 24 h measured for item Cc1ccccc1C1CC(c2ccc(Cl)c(Cl)c2)=NN1C1=NC(=O)CS1 (stereo not given)
Response: 179

----------
Assay summary: Selectivity index, ratio of IC50 for COX-1 to IC50 for COX-2
Output satisfied for Ratio IC50 not less than 8; output not satisfied otherwise.

Record excerpt, results attached:
{"Compound": "Cc1ccc(C2=NN(C3=NC(=O)CS3)C(c3ccc(F)cc3)C2)cc1C (stereo not given)", "Label class": "not satisfied"}
{"Compound": "Cc1ccc(C2=NN(C3=NC(=O)CS3)C(c3ccccc3C)C2)cc1C (stereo not given)", "Label class": "not satisfied"}

Request: Does the reported Ratio IC50 for Cc1ccc(C2=NN(C3=NC(=O)CS3)C(c3ccc(Br)cc3)C2)cc1C (stereo not given) fall at or above the 8 mark?
Response: satisfied

Request: Does the compound Cc1ccccc1C1CC(c2ccc(Cl)c(Cl)c2)=NN1C1=NC(=O)CS1 (stereo not given) have recorded Ratio IC50 that is 8 or more?
Response: not satisfied

Request: Quick check: does Cc1ccc(C2CC(c3ccc(C)c(C)c3)=NN2C2=NC(=O)CS2)cc1 (stereo not given) have Ratio IC50 greater than or equal to 8?
Response: satisfied

Request: Could you tell me if the measured Ratio IC50 of Cc1ccc(C2=NN(C3=NC(=O)CS3)C(c3ccccc3)C2)cc1C (stereo not given) reaches 8 or more?
Response: satisfied

Request: Decide: Ratio IC50 of Cc1ccc(C2=NN(C3=NC(=O)CS3)C(c3cccc(Cl)c3)C2)cc1C (stereo not given) >= 8?
Response: satisfied

----------
Entries below carry reported IC50 on Prostaglandin G/H synthase 2 (Homo sapiens).
Sequence (P35354 whole entry): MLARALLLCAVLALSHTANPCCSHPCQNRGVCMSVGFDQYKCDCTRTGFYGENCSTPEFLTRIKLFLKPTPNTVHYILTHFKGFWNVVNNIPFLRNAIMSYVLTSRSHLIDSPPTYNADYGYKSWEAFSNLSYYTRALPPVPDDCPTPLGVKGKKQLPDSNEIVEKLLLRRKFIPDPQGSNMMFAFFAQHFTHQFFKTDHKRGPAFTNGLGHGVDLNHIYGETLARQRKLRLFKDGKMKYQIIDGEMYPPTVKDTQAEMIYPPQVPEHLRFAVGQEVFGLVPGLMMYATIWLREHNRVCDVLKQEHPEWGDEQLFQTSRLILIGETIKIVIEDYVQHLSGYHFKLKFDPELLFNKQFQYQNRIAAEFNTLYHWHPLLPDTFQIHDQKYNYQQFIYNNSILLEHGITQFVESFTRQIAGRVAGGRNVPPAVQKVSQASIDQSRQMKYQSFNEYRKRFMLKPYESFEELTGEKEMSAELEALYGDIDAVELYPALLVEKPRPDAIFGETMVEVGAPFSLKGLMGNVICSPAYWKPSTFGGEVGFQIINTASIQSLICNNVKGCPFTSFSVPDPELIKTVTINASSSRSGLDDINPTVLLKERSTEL
The response must be a number in µM with no trailing unit.

{"Compound": "Cc1ccccc1C1CC(c2ccc(Cl)c(Cl)c2)=NN1C1=NC(=O)CS1 (stereo not drawn)", "IC50 / µM": 16.3}
{"Compound": "Cc1ccc(C2=NN(C3=NC(=O)CS3)C(c3ccccc3Cl)C2)cc1C (stereo not drawn)", "IC50 / µM": 7.2}

Please look at the following compound next.
Request: Supply recorded IC50 for Cc1ccc(C2=NN(C3=NC(=O)CS3)C(c3ccc(Cl)cc3)C2)cc1C (stereo not drawn) here.
Response: 4.5

----------
Notes on pIC50 obtained with Prostaglandin G/H synthase 1 (Homo sapiens, UniProt P23219).
Sequence (P23219 whole entry): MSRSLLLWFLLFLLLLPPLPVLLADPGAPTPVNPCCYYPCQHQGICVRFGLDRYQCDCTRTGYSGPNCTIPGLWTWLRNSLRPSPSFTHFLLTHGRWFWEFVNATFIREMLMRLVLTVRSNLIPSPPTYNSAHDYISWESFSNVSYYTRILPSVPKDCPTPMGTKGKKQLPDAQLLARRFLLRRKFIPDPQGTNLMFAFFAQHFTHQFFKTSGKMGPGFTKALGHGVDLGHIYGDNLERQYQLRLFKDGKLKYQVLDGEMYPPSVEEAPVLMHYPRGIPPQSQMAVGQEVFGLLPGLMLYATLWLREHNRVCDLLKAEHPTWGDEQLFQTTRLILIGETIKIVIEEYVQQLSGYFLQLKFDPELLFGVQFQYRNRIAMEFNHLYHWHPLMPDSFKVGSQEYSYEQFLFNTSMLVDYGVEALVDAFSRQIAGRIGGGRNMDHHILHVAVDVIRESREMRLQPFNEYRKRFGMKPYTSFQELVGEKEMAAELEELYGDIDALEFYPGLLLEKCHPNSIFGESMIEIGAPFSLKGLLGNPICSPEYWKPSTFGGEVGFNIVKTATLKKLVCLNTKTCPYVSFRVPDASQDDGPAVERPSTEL
# pIC50 is unitless: minus log10 of the molar concentration; print number only

Completed entries (count: 3):
{"Compound": "O=C1CSC(N2N=C(c3ccc(Cl)c(Cl)c3)CC2c2ccccc2Cl)=N1 (stereo unspecified)", "Study target": "Prostaglandin G/H synthase 1 (Homo sapiens, UniProt P23219)", "pIC50": 4.40}
{"Compound": "Cc1ccc(C2=NN(C3=NC(=O)CS3)C(c3ccccc3)C2)cc1C (stereo unspecified)", "Study target": "Prostaglandin G/H synthase 1 (Homo sapiens, UniProt P23219)", "pIC50": 4.37}
{"Compound": "Cc1ccc(C2=NN(C3=NC(=O)CS3)C(c3ccccc3Cl)C2)cc1C (stereo unspecified)", "Study target": "Prostaglandin G/H synthase 1 (Homo sapiens, UniProt P23219)", "pIC50": 4.36}

Note: attention shifts to another entry.
Request: Look up Prostaglandin G/H synthase 1 (Homo sapiens, UniProt P23219) data: pIC50 of O=C1CSC(N2N=C(c3ccc(Cl)c(Cl)c3)CC2c2ccccc2)=N1 (stereo unspecified) , then report it.
Response: 4.48

----------
Assay summary: Selectivity index, ratio of IC50 for COX-1 to IC50 for COX-2
Is Ratio IC50 at least 6? Then satisfied. If not, not satisfied.

Request: Does O=C1CSC(N2N=C(c3ccc(Cl)c(Cl)c3)CC2c2ccccc2)=N1 (stereo not given) have a reported Ratio IC50 of at least 6?
Response: satisfied

Request: Reported Ratio IC50 at or above 6? COc1ccc(C2CC(c3ccc(C)c(C)c3)=NN2C2=NC(=O)CS2)cc1 (stereo not given)
Response: satisfied

Request: Hello, I need to know if Cc1cccc(C2CC(c3ccc(C)c(C)c3)=NN2C2=NC(=O)CS2)c1 (stereo not given) has measured Ratio IC50 not below 6. Thanks!
Response: satisfied

Request: Hello, I need to know if O=C1CSC(N2N=C(c3ccc(Cl)c(Cl)c3)CC2c2ccccc2Cl)=N1 (stereo not given) has measured Ratio IC50 not below 6. Thanks!
Response: not satisfied

Request: Hello, I need to know if O=C1CSC(N2N=C(c3ccc(Cl)c(Cl)c3)CC2c2ccc(Br)cc2)=N1 (stereo not given) has measured Ratio IC50 not below 6. Thanks!
Response: satisfied

Request: Is reported Ratio IC50 greater than or equal to 6 here: Cc1ccc(C2CC(c3ccc(Cl)c(Cl)c3)=NN2C2=NC(=O)CS2)cc1 (stereo not given)
Response: satisfied

Request: API: above_or_equal(metric=Ratio IC50, cutoff=6) for item O=C1CSC(N2N=C(c3ccc(Cl)c(Cl)c3)CC2c2ccc(F)cc2)=N1 (stereo not given)
Response: not satisfied

Request: Test whether the compound O=C1CSC(N2N=C(c3ccc(Cl)c(Cl)c3)CC2c2ccc(Cl)cc2)=N1 (stereo not given) records Ratio IC50 of 6 or higher.
Response: not satisfied

Request: Hello, I need to know if Cc1ccc(C2=NN(C3=NC(=O)CS3)C(c3ccc(Cl)cc3)C2)cc1C (stereo not given) has measured Ratio IC50 not below 6. Thanks!
Response: satisfied

----------
Assay summary: Cytotoxicity against LPS-activated mouse RAW264.7 cells after 24 hrs by MTT method
Type: cell-based
Stated conditions: LPS-activated RAW264.7 cells
Response field label takes y when CC50 at 24 h is strictly below 300 µM and n in all other cases.

{"Compound": "Cc1ccc(C2=NN(C3=NC(=O)CS3)C(c3ccc(Br)cc3)C2)cc1C (stereo not given)", "Label class": "n"}
{"Compound": "Cc1ccc(C2=NN(C3=NC(=O)CS3)C(c3ccc(Cl)cc3)C2)cc1C (stereo not given)", "Label class": "y"}
{"Compound": "Cc1ccc(C2=NN(C3=NC(=O)CS3)C(c3ccccc3)C2)cc1C (stereo not given)", "Label class": "n"}
{"Compound": "Cc1cccc(C2CC(c3ccc(C)c(C)c3)=NN2C2=NC(=O)CS2)c1 (stereo not given)", "Label class": "y"}
{"Compound": "Cc1ccc(C2CC(c3ccc(C)c(C)c3)=NN2C2=NC(=O)CS2)cc1 (stereo not given)", "Label class": "n"}

We next turn to a different compound, shown below.
Request: Is it true that CC50 at 24 h reported for O=C1CSC(N2N=C(c3ccc(Cl)c(Cl)c3)CC2c2ccccc2Cl)=N1 (stereo not given) is less than 300 µM?
Response: y

----------
List of Ratio IC50 values.
Assay summary: Selectivity index, ratio of IC50 for COX-1 to IC50 for COX-2

# count of solved cases: 2
{"Molecule": "COc1ccc(C2CC(c3ccc(Cl)c(Cl)c3)=NN2C2=NC(=O)CS2)cc1 (stereo not drawn)", "Ratio IC50": "> 7.4"}
{"Molecule": "Cc1cccc(C2CC(c3ccc(Cl)c(Cl)c3)=NN2C2=NC(=O)CS2)c1 (stereo not drawn)", "Ratio IC50": "> 6.9"}

Request: Quote Ratio IC50 reported for O=C1CSC(N2N=C(c3ccc(Cl)c(Cl)c3)CC2c2cccc(Cl)c2)=N1 (stereo not drawn) please.
Response: > 3.1
